study_target: UniProtKB P35414
assay_procedure: potency against CXCR6 with APJ panel – cell-based, beta-arrestin, DiscoveRx, uHTS hits, dose response (AID 624129)
assay_setup: CXCR6 beta-arrestin (DiscoveRx) antagonist cell assay, APJ, run 3, dose range 1
In this section, each of the compounds is paired with its reported pIC50.
Please keep in mind that pIC50 is minus log10 of the molar concentration; only the number is needed.

Past entries and their recorded results:
# compound_string, study_target, property_measured, value
rows = [
    ("COC(CNC(=O)c1cc(C(=O)c2c(-c3c(Cl)cccc3Cl)noc2C)c[nH]1)OC", "UniProtKB P35414", "pIC50", 4.92),
    ("Cc1nnc(Sc2cc(NCCCO)c([N+](=O)[O-])c3nonc23)s1", "UniProtKB P35414", "pIC50", 4.98),
    ("CC1(C)CC(=O)C2=C(C1)OC1=C(C(=O)CC(C)(C)C1)C2c1ccc(O)cc1O", "UniProtKB P35414", "pIC50", 4.93),
]

Need pIC50, item COc1ccc(-c2csc(Cc3nc(O)cs3)n2)cc1
5.35

Need pIC50, item CC(C)(C)C(=O)NC(=S)NNC(=O)c1sc2ccccc2c1Cl
4.83

Need pIC50, item O=C1C=CC2(O[C@H](c3ccccc3)[C@@H](c3ccccc3)O2)[C@H](Sc2ccccc2O)C1
5.61

The origin of these recorded values is PubChem BioAssay AID624129.
